# Experimental Protocol: BSK_hDFCGF_Proliferation: Cell Proliferation Assessment in the BioMAP Diversity Plus: hDFCGF Assay (AID 2283059);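 note: curves fitted for both rise and fall of signal versus DMSO baseline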
# Conditions Used: primary human foreskin fibroblasts
Activity calls are given as the source filed them. Rule for the calls: active = hit-call score of the fitted dose curve at least 0.9, where 1 is the maximum; inactive = score below 0.9.
In this exercise, the only acceptable responses are active, inactive

Field: example entries. Status: answers known.
Enquiry: Recorded test outcome, item "CC(C)(C)OOC(=O)c1ccccc1"
Return: active

Enquiry: Hey, what did the test say about "Nc1ccc(Oc2ccc(N)cc2)cc1" ?
Return: active

Enquiry: Hi, do you know how "C=CCc1ccc2c(c1)OCO2" came out in this test?
Return: inactive

Enquiry: Per the records of this test, what outcome belongs to "Oc1ccccc1Cl" ?
Return: inactive

Further cases:
Enquiry: Status in this test for CC(C)(C)C(O)(CCc1ccc(Cl)cc1)Cn1cncn1 (stereo not given) ?
Return: active

Enquiry: Assay outcome for "CCCCCOC(=O)c1ccccc1C(=O)OCCCCC" : what was it?
Return: inactive

Enquiry: Recorded call for "O=C(Nc1ccccc1)c1ccccc1I" ?
Return: inactive

Enquiry: Entry "c1ccc(NNc2ccccc2)cc1" : call = ?
Return: inactive

Enquiry: Status in this test for "OCCCBr" ?
Return: inactive

Enquiry: Recorded test outcome, item "c1ccc(N=Nc2ccccc2)cc1"
Return: inactive
